- test.target: Caspase-3 (Homo sapiens)
- measurement.description: Induction of caspase 3 activation in human HeLa cells using Ac-DEVD-pNA after 4 hrs by Bradford assay
- Type: cell-based

compound.structure.string: CC1=C(C)C(=O)O[C@@H]([C@@H](C)[C@H]2CC=C3[C@@H]4C[C@H]5O[C@]56[C@@H](O)C=CC(=O)[C@]6(C)[C@H]4CC[C@@]32C)C1
test.target: Caspase-3 (Homo sapiens)
Activity: Dose-dependent effect
//
compound.structure.string: CC1=C(CO)C(=O)O[C@@H]([C@@H](C)[C@H]2CC[C@H]3[C@@H]4C[C@H]5O[C@]56[C@@H](O)C=CC(=O)[C@]6(C)[C@H]4CC[C@]23C)C1
test.target: Caspase-3 (Homo sapiens)
Activity: Dose-dependent effect
//
compound.structure.string: CC1=C(CO[Si](C)(C)C(C)(C)C)C(=O)O[C@@H]([C@@H](C)[C@H]2CC[C@H]3[C@@H]4C[C@H]5O[C@]56[C@@H](O)C=CC(=O)[C@]6(C)[C@H]4CC[C@]23C)C1
test.target: Caspase-3 (Homo sapiens)
Activity: Dose-dependent effect

====

- System: HeLa
- measurement.description: Cytotoxicity against human HeLa cells assessed as cell viability after 48 hrs by MTT assay
- Assay type: functional, cell-based
Below, each of the compounds is paired with its reported pIC50 value.
Note on pIC50: it is the negative log10 of concentration, concentration in mol/L.

compound.structure.string: CC(=O)OCC1=C(C)C[C@H]([C@@H](C)[C@H]2CC[C@H]3[C@@H]4C[C@H]5O[C@]56[C@@H](O)C=CC(=O)[C@]6(C)[C@H]4CC[C@]23C)OC1=O
pIC50: 5.11

The record that follows has no pIC50 shown yet.
// pIC50 lookup, compound = `CC1=C(C)C(=O)O[C@@H]([C@@H](C)[C@H]2CC[C@H]3[C@@H]4C[C@H]5O[C@]56[C@@H](O)C=CC(=O)[C@]6(C)[C@H]4CC[C@]23C)C1` , result: 5.34

====

- Tested on: MCF7
- measurement.description: Cytotoxicity against human MCF7 cells assessed as cell viability after 72 hrs by MTT assay
- Format: functional, cell-based
- protocol.conditions: MCF7, 72 h
pIC50: −log10 of the molar value.
Label yes when pIC50 >= 6; otherwise no.

compound.structure.string: CC1=C(CO)C(=O)O[C@@H]([C@@H](C)[C@H]2CC[C@H]3[C@@H]4C[C@H](O)[C@]5(O)[C@@H](O)C=CC(=O)[C@]5(C)[C@H]4CC[C@]23C)C1
class.name: no
//
compound.structure.string: CC1=C(CO)C(=O)O[C@@H]([C@@H](C)[C@H]2CC[C@H]3[C@@H]4C[C@H]5O[C@]56[C@@H](O)CCC(=O)[C@]6(C)[C@H]4CC[C@]23C)C1
class.name: no
//
compound.structure.string: CC1=C(CO)C(=O)O[C@@H]([C@@H](C)[C@H]2CC[C@H]3[C@@H]4C[C@@H](O)[C@@]5(O)[C@@H](O)[C@@H](O)CC(=O)[C@]5(C)[C@H]4CC[C@]23C)C1
class.name: no

[ask] Please tell me: is the compound `CC1=C(COC(C)(C)OC=O)C(=O)O[C@@H]([C@@H](C)[C@H]2CC[C@H]3[C@@H]4C[C@H]5O[C@]56[C@@H](O)C=CC(=O)[C@]6(C)[C@H]4CC[C@]23C)C1` at or over 6 in terms of pIC50?
[reply] no

[ask] I'd appreciate it if you could say whether `CC1=C(C)C(=O)O[C@@H]([C@@H](C)[C@H]2CC=C3[C@@H]4C[C@H]5O[C@]56[C@@H](O)C=CC(=O)[C@]6(C)[C@H]4CC[C@@]32C)C1` has pIC50 at least equal to 6.
[reply] yes

[ask] Determine whether measured pIC50 meets or exceeds 6 for `CC1=C(C)C(=O)O[C@@H]([C@@H](C)C2=CC[C@H]3[C@@H]4C[C@H]5O[C@]56[C@@H](O)C=CC(=O)[C@]6(C)[C@H]4CC[C@]23C)C1`
[reply] no

[ask] Evaluate `CC1=C(C)C(=O)O[C@@H]([C@@H](C)[C@H]2CC[C@H]3[C@@H]4C[C@@H](O)[C@]5(C=O)CCC(=O)[C@]5(C)[C@H]4CC[C@]23C)C1` : pIC50 at minimum 6?
[reply] no

[ask] Please tell me: is the compound `CC1=C(CO)C(=O)O[C@@H]([C@@H](C)[C@@]2(O)CC[C@H]3[C@@H]4C[C@H]5O[C@]56[C@@H](O)C=CC(=O)[C@]6(C)[C@H]4CC[C@@]32C)C1` at or over 6 in terms of pIC50?
[reply] no

[ask] Textbook exercise: given the entry `CC(=O)OCC1=C(C)C[C@H]([C@@H](C)[C@H]2CC[C@H]3[C@@H]4C[C@H]5O[C@]56[C@@H](O)C=CC(=O)[C@]6(C)[C@H]4CC[C@]23C)OC1=O` , state whether its pIC50 is greater than or equal to 6.
[reply] no

[ask] In plain terms: is recorded pIC50 at least 6 for `CC1=C(CO)C(=O)O[C@@H]([C@@H](C)[C@H]2CC[C@H]3[C@@H]4C[C@H]5O[C@]56[C@@H](O)C=CC(=O)[C@]6(C)[C@H]4CC[C@]23C)C1` ?
[reply] yes

====

Items are presented alongside their recorded IC50.
- Test system: HeLa
- measurement.description: Cytotoxicity against human HeLa cells assessed as cell viability after 48 hrs by MTT assay
- Assay type: functional, cell-based
Provide only the numeric value, understood in µM.

compound.structure.string: CC1=C(CO)C(=O)O[C@@H]([C@@H](C)[C@H]2CC[C@H]3[C@@H]4C[C@H]5O[C@]56C(=O)C=CC(=O)[C@]6(C)[C@H]4CC[C@]23C)C1
result.unit: µM
assay.value: 18.4

compound.structure.string: CC1=C(C)C(=O)O[C@@H]([C@@H](C)C2=CC[C@H]3[C@@H]4C[C@H]5O[C@]56[C@@H](O)C=CC(=O)[C@]6(C)[C@H]4CC[C@]23C)C1
result.unit: µM
assay.value: 21.5

Entry `CC1=C(CO[Si](C)(C)C(C)(C)C)C(=O)O[C@@H]([C@@H](C)[C@H]2CC[C@H]3[C@@H]4C[C@H]5O[C@]56C(=O)C=CC(=O)[C@]6(C)[C@H]4CC[C@]23C)C1` ; IC50 = 1.7

====

- Tested on: A549
- measurement.description: Cytotoxicity against human A549 cells assessed as cell viability after 48 hrs by MTT assay
- Format: functional, cell-based
- protocol.conditions: A549, 48 h
test.readout: pIC50
// returns pIC50 (minus log10 of molar concentration), number only

compound.structure.string: CC1=C(CO[Si](C)(C)C(C)(C)C)C(=O)O[C@@H]([C@@H](C)[C@H]2CC[C@H]3[C@@H]4C[C@H]5O[C@]56C(=O)C=CC(=O)[C@]6(C)[C@H]4CC[C@]23C)C1
test.target: A549
assay.value: 5.28
--
compound.structure.string: CC1=C(C)C(=O)O[C@@H]([C@@H](C)[C@H]2CC=C3[C@@H]4C[C@H]5O[C@]56[C@@H](O)C=CC(=O)[C@]6(C)[C@H]4CC[C@@]32C)C1
test.target: A549
assay.value: 5.59

So, `CC1=C(CO)C(=O)O[C@@H]([C@@H](C)[C@H]2CC[C@H]3[C@@H]4C[C@H](Cl)[C@]5(O)[C@@H](O)C=CC(=O)[C@]5(C)[C@H]4CC[C@]23C)C1` ? Its pIC50 was 4.83

====

- System: HeLa
- measurement.description: Cytotoxicity against human HeLa cells assessed as cell viability after 48 hrs by MTT assay
- Type: functional, cell-based
*1 amine or outer side, *2 acyl side, *3 side chain or, on linkers, in order; H or OH if unused. Where a SMILES comes first, the peptide text is derived from it. Bridges are numbered along the chain shown (N, C = ends). Roman numbers before positions name the chains, in order. [ ]: non-standard residue; d: D form. Actinocin(1to9) = Cc1c2oc3c(C)ccc(C(=O)[*:2])c3nc-2c(C(=O)[*:1])c(N)c1=O; NMeV = CN[C@H](C(=O)O)C(C)C; Sar = CNCC(=O)O
test.readout: IC50

The recorded IC50 for `CC1=C(CO)C(=O)O[C@@H]([C@@H](C)[C@H]2CC[C@H]3[C@@H]4C[C@@H](O)[C@]5(C=O)CCC(=O)[C@]5(C)[C@H]4CC[C@]23C)C1` is > 40 µM

Notebook: `CC1=C(CO)C(=O)O[C@@H]([C@@H](C)[C@H]2CC[C@H]3[C@@H]4C[C@@H](O)[C@@]5(O)[C@@H](O)[C@@H](O)CC(=O)[C@]5(C)[C@H]4CC[C@]23C)C1` , IC50 read as > 40 µM

Summary for this compound, Cc1c2oc3c(C)ccc(C(=O)N[C@@H]4C(=O)N[C@H](C(C)C)C(=O)N5CCC[C@H]5C(=O)N(C)CC(=O)N(C)[C@@H](C(C)C)C(=O)O[C@@H]4C)c3nc-2c(C(=O)N[C@@H]2C(=O)N[C@H](C(C)C)C(=O)N3CCC[C@H]3C(=O)N(C)CC(=O)N(C)[C@@H](C(C)C)C(=O)O[C@@H]2C)c(N)c1=O [DACTINOMYCIN] (I: T[dV]P[Sar][NMeV] / II: T[dV]P[Sar][NMeV]; ester I:1-I:C, II:1-II:C; linker I:N-II:N via Actinocin(1to9)) : IC50 is 0.0011 µM
